- System: DERL-7 (IL-2 2.5 ng/mL)
- Experiment Description: percent inhibition of viability; higher = more inhibition;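 further: normalised to DMSO-only wells as negative and benzethonium chloride as positive control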
- Conditions: 72 h; 10 nM
Value Type: percent inhibition of viability (%)
Write it as a number; the unit % goes unstated.

Examples with their reported percent inhibition of viability follow.
[[record]]
compound = "CNC(=O)CN1CCC(Oc2cc3c(Nc4cccc(Cl)c4F)ncnc3cc2OC)CC1 [Sapitinib] (max concentration tested 1000 nM)"
observed_result = -4.76

[[record]]
compound = "N#Cc1ccc(COC[C@H]2O[C@@H](n3c(NCc4ccc(Cl)c(Cl)c4)nc4c(N)ncnc43)[C@H](O)[C@@H]2O)cc1 (max concentration tested 10000 nM)"
observed_result = 2.63

[[record]]
compound = "Nc1ccccc1NC(=O)c1ccc(CNC(=O)OCc2cccnc2)cc1 [Entinostat] (max concentration tested 10000 nM)"
observed_result = 2.75

[[record]]
compound = "CC[C@H](Nc1ncnc2[nH]cnc12)c1nc2cccc(F)c2c(=O)n1-c1ccccc1 [Idelalisib] (max concentration tested 10000 nM)"
observed_result = 7.45

[[record]]
compound = "Cc1ccc(NC(=O)c2ccc(CN3CCN(C)CC3)cc2)cc1Nc1nc(-c2cccnc2)cs1 [Masitinib] (max concentration tested 10000 nM)"
observed_result = 4.7


Please find the next compound below.
Which measured percent inhibition of viability value corresponds to COc1cc2/c(=N/c3ccc(Br)cc3F)nc[nH]c2cc1OCC1CCN(C)CC1 [Vandetanib] (max concentration tested 1000 nM) ? -15.9

###

Listed below: percent inhibition of viability values for each entry.
- Tested on: NKL (IL-2 2.5 ng/mL)
- Experiment Description: percent inhibition of viability; higher = more inhibition
- Conditions: 72 h; 0.1 nM
Write it as a number; the unit % goes unstated.

[[record]]
molecule = "COc1cc2/c(=N/c3ccc(Br)cc3F)nc[nH]c2cc1OCC1CCN(C)CC1 [Vandetanib] (max concentration tested 1000 nM)"
study_system = "NKL (IL-2 2.5 ng/mL)"
value_type = "percent inhibition of viability"
observed_result = -13.3

[[record]]
molecule = "CC(C)C[C@H](NC(=O)[C@H](Cc1ccccc1)NC(=O)c1cnccn1)B(O)O [Bortezomib] (max concentration tested 1000 nM)"
study_system = "NKL (IL-2 2.5 ng/mL)"
value_type = "percent inhibition of viability"
observed_result = -12.9

[[record]]
molecule = "CC[C@@H]1C(=O)N(C)c2cnc(Nc3ccc(C(=O)NC4CCN(C)CC4)cc3OC)nc2N1C1CCCC1 [BI 2536] (max concentration tested 1000 nM)"
study_system = "NKL (IL-2 2.5 ng/mL)"
value_type = "percent inhibition of viability"
observed_result = -16.1

[[record]]
molecule = "CC[C@H](NC(=O)[C@H](C)NC)C(=O)N1C[C@@H](O)C[C@H]1Cc1c(-c2[nH]c3cc(F)ccc3c2C[C@@H]2C[C@H](O)CN2C(=O)[C@H](CC)NC(=O)[C@H](C)NC)[nH]c2cc(F)ccc12 [Birinapant] (max concentration tested 1000 nM)"
study_system = "NKL (IL-2 2.5 ng/mL)"
value_type = "percent inhibition of viability"
observed_result = 5.63

[[record]]
molecule = "CC(C)(C)c1cc(NC(=O)Nc2ccc(-c3cn4c(n3)sc3cc(OCCN5CCOCC5)ccc34)cc2)no1 [Quizartinib] (max concentration tested 1000 nM)"
study_system = "NKL (IL-2 2.5 ng/mL)"
value_type = "percent inhibition of viability"
observed_result = -4.32

[[record]]
molecule = "C=CC(=O)N1CCC[C@@H](n2nc(-c3ccc(Oc4ccccc4)cc3)c3c(N)ncnc32)C1 [Ibrutinib] (max concentration tested 1000 nM)"
study_system = "NKL (IL-2 2.5 ng/mL)"
value_type = "percent inhibition of viability"
observed_result = -5.52

[[record]]
molecule = "Oc1ccc2c(c1)CC[C@H](c1ccccc1)[C@@H]2c1ccc(OCCN2CCCC2)cc1 [Lasofoxifene] (max concentration tested 1000 nM)"
study_system = "NKL (IL-2 2.5 ng/mL)"
value_type = "percent inhibition of viability"
observed_result = -11.5

[[record]]
molecule = "CCn1cc(-c2ccnc3[nH]c(-c4cccc(CN(C)C)c4)cc23)c(-c2ccc(NC(=O)N(C)C)cc2)n1 (max concentration tested 1000 nM)"
study_system = "NKL (IL-2 2.5 ng/mL)"
value_type = "percent inhibition of viability"
observed_result = -15

[[record]]
molecule = "COc1cc2c(Oc3ccc4[nH]c(C)cc4c3F)ncnc2cc1OCCCN1CCCC1 [Cediranib] (max concentration tested 1000 nM)"
study_system = "NKL (IL-2 2.5 ng/mL)"
value_type = "percent inhibition of viability"
observed_result = -22.1


Please find the next molecule below.
Which measured percent inhibition of viability value corresponds to CO[C@H]1C[C@@H]2CC[C@@H](C)[C@@](O)(O2)C(=O)C(=O)N2CCCC[C@H]2C(=O)O[C@H]([C@H](C)C[C@@H]2CC[C@@H](OP(C)(C)=O)[C@H](OC)C2)CC(=O)[C@H](C)/C=C(\C)[C@@H](O)[C@@H](OC)C(=O)[C@H](C)C[C@H](C)/C=C/C=C/C=C/1C [Ridaforolimus] (max concentration tested 100 nM) ? 21.2
